Measured IC50 by item
Tested on: Plasmodium falciparum, strain NF54, erythrocytic stages
Assay Protocol: microbe, parasite or virus in culture
Measurement Setup: NF54, read-out: P. falc. IC50
Give just the number in nM; leave the unit off.

compound=O=C1C(Cc2ccc(C(F)(F)F)cc2)=C(C(F)(F)F)C(=O)c2ccccc21 reported_result=1460
compound=O=C1C(Cc2ccc(C(F)(F)F)cc2F)=C(C(F)(F)F)C(=O)c2ccccc21 reported_result=2310
compound=CC1=C(Cc2ccccc2)C(=O)c2ccccc2C1=O reported_result=358
compound=CC1=C(Cc2ccc(OC(F)(F)F)cc2)C(=O)c2ccccc2C1=O reported_result=29
compound=O=C1C=C(Cc2ccc(C(F)(F)F)cc2F)C(=O)c2ccccc21 reported_result=1760

# context switch: different compound, same IC50
Quick one: IC50 of CC1=C(Cc2cc(OC(F)(F)F)ccc2F)C(=O)c2ccccc2C1=O ? 38

Sourced from paper PMC11900971
